- study system: Tubulin (UniProt P68371+Q9H4B7+P0DPH7+P68366+Q13509+Q71U36+P04350+Q3ZCM7+P07437+P68363+Q9BQE3+Q6PEY2+Q13885+Q9BVA1+Q9BUF5)
- assay text: Displacement of [3H]colchicine from long-chain biotin-labeled tubulin (unknown origin) at 1 uM after 2 hrs by competition binding scintillation proximity assay
- Format: protein-complex assay
- condition: Homo sapiens
Entry flag: Condition met if inhibition reaches 50%; Condition not met if it does not.

Worked cases, answers included:
In [3]: df
Out[3]:
                                   compound                cat
0  COc1ccc(S(=O)(=O)N2CCc3cccc(-c4ccncc4)c32)cc1      Condition met
1  COc1ccc(S(=O)(=O)N2CCc3cccc(-c4ccco4)c32)cc1  Condition not met

(Q) In plain terms: is recorded inhibition at least 50% for "COc1ccc(S(=O)(=O)N2CCc3cccc(-c4ccc([N+](=O)[O-])cc4)c32)cc1" ?
(A) Condition met

(Q) In plain terms: is recorded inhibition at least 50% for "COc1ccc(S(=O)(=O)N2CCc3cccc(-c4ccc(C#N)cc4)c32)cc1" ?
(A) Condition met

(Q) In plain terms: is recorded inhibition at least 50% for "COc1ccc(S(=O)(=O)N2CCc3cccc(-c4ccc(F)cc4)c32)cc1" ?
(A) Condition met

(Q) In plain terms: is recorded inhibition at least 50% for "COc1ccc(S(=O)(=O)N2CCc3cccc(-c4ccc(F)c(F)c4)c32)cc1" ?
(A) Condition met

----------
- study system: Tubulin (Bos taurus, UniProt Q6B856+Q862L2+Q862F3)
- assay text: Inhibition of bovine brain microtubule-associated protein rich tubulin polymerization by turbidimetric assay
Label 1 when IC50 < 2 µM; otherwise -1.

Worked cases, answers included:
>>> df
                                   compound  cat
0  COc1ccc(S(=O)(=O)N2CCc3cccc(-c4ccc([N+](=O)[O-])cc4)c32)cc1    1
1  COc1ccc(S(=O)(=O)N2CCc3cccc(-c4ccc(F)cc4)c32)cc1   -1

(Q) Just wondering, is IC50 of "COc1ccc(S(=O)(=O)N2CCc3cccc(-c4ccncc4)c32)cc1" below 2 µM?
(A) -1

(Q) Just wondering, is IC50 of "COc1ccc(S(=O)(=O)N2CCc3cccc(-c4ccco4)c32)cc1" below 2 µM?
(A) -1

(Q) Just wondering, is IC50 of "COc1ccc(S(=O)(=O)N2CCc3cccc(-c4ccc(F)c(F)c4)c32)cc1" below 2 µM?
(A) -1

(Q) Just wondering, is IC50 of "COc1ccc(S(=O)(=O)N2CCc3cccc(-c4ccc(C#N)cc4)c32)cc1" below 2 µM?
(A) 1

----------
- study system: Tubulin (UniProt P68371+Q9H4B7+P0DPH7+P68366+Q13509+Q71U36+P04350+Q3ZCM7+P07437+P68363+Q9BQE3+Q6PEY2+Q13885+Q9BVA1+Q9BUF5)
- assay text: Displacement of [3H]colchicine from long-chain biotin-labeled tubulin (unknown origin) at 5 uM after 2 hrs by competition binding scintillation proximity assay
- Type: protein-complex assay
- condition: Homo sapiens
parameter: inhibition (%)
Write it as a number; the unit % goes unstated.

Study these solved cases before continuing.
>>> df
                                   compound  readout_number
0  COc1ccc(S(=O)(=O)N2CCc3cccc(-c4ccc(F)cc4)c32)cc1              73
1  COc1ccc(S(=O)(=O)N2CCc3cccc(-c4ccncc4)c32)cc1              72
2  COc1ccc(S(=O)(=O)N2CCc3cccc(-c4ccco4)c32)cc1              68
3  COc1ccc(S(=O)(=O)N2CCc3cccc(-c4ccc(C#N)cc4)c32)cc1              92
4  COc1ccc(S(=O)(=O)N2CCc3cccc(-c4ccc([N+](=O)[O-])cc4)c32)cc1              74

(Q) Given "COc1ccc(S(=O)(=O)N2CCc3cccc(-c4ccc(F)c(F)c4)c32)cc1" , state its recorded inhibition.
(A) 72

These data points were gathered from ChEMBL document CHEMBL3217693.
